The measurements presented in this section are drawn from patent US20260049072A1.

biological target: RAS G12V (Homo sapiens, UniProt P01116, G12V); construct: host or cells: PA-TU-8902 human pancreatic cancer cells; assay: RAS G12V degradation activity, Cell ELISA, PA-TU-8902; type: cell-based; settings: PA-TU-8902 cells, 24 hours, 100% = Example compound 17 at 1 μM; read-out: DC50 (RAS G12V 50% degradation value)
Sequence (P01116 1-188 isoform P01116-2 G12V): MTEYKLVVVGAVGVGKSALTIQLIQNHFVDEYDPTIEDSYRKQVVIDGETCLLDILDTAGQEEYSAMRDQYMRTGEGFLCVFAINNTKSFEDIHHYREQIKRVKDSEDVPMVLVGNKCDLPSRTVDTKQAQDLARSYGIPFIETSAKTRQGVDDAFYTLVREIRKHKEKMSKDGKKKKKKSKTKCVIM
DC50 values, listed per item
Give just the numeric value; nM need not be written.

compound	scale unit	DC50
CO[C@@H](C)COc1nc(N[C@H]2C[C@H](OCCN(C)C)C2)c2cc(C3CC3)c(-c3c(C)c(F)cc4[nH]ncc34)c(OCc3ccc(-c4cn([C@H](C(=O)N5C[C@H](O)C[C@H]5C(=O)N[C@@H](CO)c5ccc(-c6scnc6C)cc5)C(C)C)nn4)cc3)c2n1 (atropisomer, axis not shown)	nM	112

Please find the next compound below.
Task: May I ask what DC50 has been recorded for CO[C@@H](C)COc1cc(OC2CN(C(=O)NCCN(C)C)C2)c2cc(C3CC3)c(-c3c(C)c(F)cc4[nH]ncc34)c(OCc3ccc(-c4cn([C@H](C(=O)N5C[C@H](O)C[C@H]5C(=O)N[C@@H](CO)c5ccc(-n6cncn6)cc5)C(C)C)nn4)cc3)c2n1 (atropisomer, axis not shown; (M)) ?
Output: 37

###

test system: PA-TU-8902 cells; test: Non-anchorage-dependent cell growth inhibition (spheroid 3D culture), PA-TU-8902; type: cell-based, human; settings: Homo sapiens, PaTu 8902, 144 h; KRAS G12V mutant-positive, 3D spheroid, six days, CellTiter-Glo 2.0; read-out: PA-TU-8902 IC50
pIC50 values, listed per item
Expect pIC50 as a plain number equal to -log10 of the molar concentration.

compound	observation type	value observed
CO[C@@H](C)COc1cc(OC2CN(C(=O)N3CC(CN(C)C)C3)C2)c2cc(C3CC3)c(-c3c(C)c(F)cc4[nH]ncc34)c(OCc3ccc(-c4cn([C@H](C(=O)N5C[C@H](O)C[C@H]5C(=O)N[C@@H](CO)c5ccc(N6CCOC6=O)cc5)C(C)C)nn4)cc3)c2n1 (atropisomer, axis not shown)	pIC50	6.99
Cc1ncsc1-c1ccc([C@H](CO)NC(=O)[C@@H]2C[C@@H](O)CN2C(=O)[C@H](C(C)C)n2cc(-c3ccc(COc4c(-c5c(C)c(F)cc6[nH]ncc56)c(C5CC5)cc5c(N6CC[C@H]6C(N)=O)nc(OC6CCOCC6)nc45)cc3)nn2)cc1	pIC50	7.49

Please find the next compound below.
Task: // map CO[C@@H](C)COc1nc(N[C@H]2C[C@H](OCCN(C)C)C2)c2cc(C3CC3)c(-c3c(C)c(F)cc4[nH]ncc34)c(OCc3ccc(-c4cn([C@H](C(=O)N5C[C@H](O)C[C@H]5C(=O)N[C@@H](CO)c5ccc(-c6scnc6C)cc5)C(C)C)nn4)cc3)c2n1 (atropisomer, axis not shown) to recorded pIC50 (system: PA-TU-8902 cells)
Output: 6.74

###

target: RAS G12D (Homo sapiens, UniProt P01116, G12D); construct: host or cells: AsPC-1 human pancreatic cancer cells; experiment: RAS G12D degradation activity, Cell ELISA, AsPC-1; type: cell-based; conditions: AsPC-1 cells, 24 hours; read-out: DC50 (RAS G12D 50% degradation value)
Sequence (P01116 1-188 isoform P01116-2 G12D): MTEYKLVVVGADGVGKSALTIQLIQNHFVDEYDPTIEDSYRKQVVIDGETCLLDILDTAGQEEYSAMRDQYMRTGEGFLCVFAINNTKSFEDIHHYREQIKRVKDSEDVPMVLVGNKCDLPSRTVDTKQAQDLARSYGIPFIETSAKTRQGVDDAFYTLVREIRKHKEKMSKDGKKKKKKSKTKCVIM
observation type: DC50 (nM)

Reference set (3 entries):
molecule	tested system	value observed
CO[C@@H](C)COc1nc(N2CCOCC2)c2cc(C3CC3)c(-c3c(C)c(F)cc4[nH]ncc34)c(OCc3ccc(-c4cn([C@H](C(=O)N5C[C@H](O)C[C@H]5C(=O)N[C@@H](CO)c5ccc(-c6scnc6C)cc5)C(C)C)nn4)cc3)c2n1 (atropisomer, axis not shown) [Example 21]	RAS G12D (Homo sapiens, UniProt P01116, G12D)	8
CO[C@@H](C)COc1nc(N2CC(C#N)C2)c2cc(C3CC3)c(-c3c(C)c(F)cc4[nH]ncc34)c(OCc3ccc(-c4cn([C@H](C(=O)N5C[C@H](O)C[C@H]5C(=O)N[C@@H](CO)c5ccc(-c6scnc6C)cc5)C(C)C)nn4)cc3)c2n1 (atropisomer, axis not shown) [Example 20]	RAS G12D (Homo sapiens, UniProt P01116, G12D)	16
CO[C@@H](C)COc1cc(OC2CN(C(=O)N3CC(CN(C)C)C3)C2)c2cc(C3CC3)c(-c3c(C)c(F)cc4[nH]ncc34)c(OCc3ccc(-c4cn([C@H](C(=O)N5C[C@H](O)C[C@H]5C(=O)N[C@@H](CO)c5ccc(-n6cncn6)cc5)C(C)C)nn4)cc3)c2n1 (atropisomer, axis not shown; (M)) [Example 5]	RAS G12D (Homo sapiens, UniProt P01116, G12D)	6

P. Cc1ncsc1-c1ccc([C@H](CO)NC(=O)[C@@H]2C[C@@H](O)CN2C(=O)[C@H](C(C)C)n2cc(-c3ccc(COc4c(-c5c(C)c(F)cc6[nH]ncc56)c(C5CC5)cc5c(N6CC[C@H]6C(N)=O)nc(OC6CCOCC6)nc45)cc3)nn2)cc1 [Example 35]
Q. Cc1ncsc1-c1ccc([C@H](CO)NC(=O)[C@@H]2C[C@@H](O)CN2C(=O)[C@H](C(C)C)n2cc(-c3ccc(COc4c(-c5c(C)c(F)cc6[nH]ncc56)c(C5CC5)cc5c(NC6CN(c7ncccn7)C6)nc(OC6CCOCC6)nc45)cc3)nn2)cc1 [Example 15]
Task: Given P and Q , report the one with the higher recorded DC50. State your choice using its label.
Output: Q
(Q: 146 nM, P: 16 nM)

###

tested on: AsPC-1 cells; assay: Non-anchorage-dependent cell growth inhibition (spheroid 3D culture), AsPC-1; assay type: cell-based; details: Homo sapiens, ASPC1, 144 h; KRAS G12D mutant-positive, 3D spheroid, six days, CellTiter-Glo 2.0; read-out: AsPC-1 IC50
observation type: IC50 (nM)
Give just the numeric value; nM need not be written.

Reference set (4 entries):
molecule	tested system	value observed
CO[C@@H](C)COc1nc(N(C)[C@H]2CCN(C(=O)NCCN(C)C)C2)c2cc(C3CC3)c(-c3c(C)c(F)cc4[nH]ncc34)c(OCc3ccc(-c4cn([C@H](C(=O)N5C[C@H](O)C[C@H]5C(=O)N[C@@H](CO)c5ccc(-c6scnc6C)cc5)C(C)C)nn4)cc3)c2n1 (atropisomer, axis not shown) [Example 19]	AsPC-1 cells	16
CO[C@@H](C)COc1nc(NC2CN(C(=S)N3CC(CN(C)C)C3)C2)c2cc(C3CC3)c(-c3c(C)c(F)cc4[nH]ncc34)c(OCc3ccc(-c4cn([C@H](C(=O)N5C[C@H](O)C[C@H]5C(=O)N[C@@H](CO)c5ccc(-n6cncn6)cc5)C(C)C)nn4)cc3)c2n1 (atropisomer, axis not shown) [Example 26]	AsPC-1 cells	15
CO[C@@H](C)COc1cc(OC2CN(C(=O)CCCN(C)C)C2)c2cc(C3CC3)c(-c3c(C)c(F)cc4[nH]ncc34)c(OCc3ccc(-c4cn([C@H](C(=O)N5C[C@H](O)C[C@H]5C(=O)N[C@@H](CO)c5ccc(-n6cncn6)cc5)C(C)C)nn4)cc3)c2n1 (atropisomer, axis not shown; (M)) [Example 41]	AsPC-1 cells	29
CO[C@@H](C)COc1nc(NC2CN(C(=O)O[C@H]3C[C@@H](N(C)C)C3)C2)c2cc(C3CC3)c(-c3c(C)c(F)cc4[nH]ncc34)c(OCc3ccc(-c4cn([C@H](C(=O)N5C[C@H](O)C[C@H]5C(=O)N[C@@H](CO)c5ccc(N6CCOC6=O)cc5)C(C)C)nn4)cc3)c2n1 (atropisomer, axis not shown) [Example 4]	AsPC-1 cells	38

Task: May I ask what IC50 has been recorded for CO[C@@H](C)COc1nc(NC2CN(C(=O)O[C@H]3C[C@@H](N(C)C)C3)C2)c2cc(C3CC3)c(-c3c(C)c(F)cc4[nH]ncc34)c(OCc3ccc(-c4cn([C@H](C(=O)N5C[C@H](O)C[C@H]5C(=O)N[C@@H](CO)c5ccc(-c6scnc6C)cc5)C(C)C)nn4)cc3)c2n1 (atropisomer, axis not shown; (M)) [Example 11] ?
Output: 11

Task: Continue with CO[C@@H](C)COc1cc(OC2CN(C(=O)NCCN(C)C)C2)c2cc(C3CC3)c(-c3c(C)c(F)cc4[nH]ncc34)c(OCc3ccc(-c4cn([C@H](C(=O)N5C[C@H](O)C[C@H]5C(=O)N[C@@H](CO)c5ccc(-n6cncn6)cc5)C(C)C)nn4)cc3)c2n1 (atropisomer, axis not shown; (M)) [Example 12]
Output: 17

###

target: RAS G12D (Homo sapiens, UniProt P01116, G12D); construct: host or cells: AsPC-1 human pancreatic cancer cells; assay: RAS G12D degradation activity, Cell ELISA, AsPC-1; assay type: cell-based; conditions: AsPC-1 cells, 24 hours; read-out: DC50 (RAS G12D 50% degradation value)
DC50 values, listed per item
Give just the numeric value; nM need not be written.

Reference set (2 entries):
compound	tested system	scale unit	DC50
CO[C@@H](C)COc1cc(OC2CN(C(=O)N3CC(CN(C)C)C3)C2)c2cc(C3CC3)c(-c3c(C)c(F)cc4[nH]ncc34)c(OCc3ccc(-c4cn([C@H](C(=O)N5C[C@H](O)C[C@H]5C(=O)N[C@@H](CO)c5ccc(-c6scnc6C)cc5)C(C)C)nn4)cc3)c2n1 (atropisomer, axis not shown; (M)) [Example 14]	RAS G12D (Homo sapiens, UniProt P01116, G12D)	nM	2
CO[C@@H](C)COc1cc(OC2CN(C(=O)NCCN(C)C)C2)c2cc(C3CC3)c(-c3c(C)c(F)cc4[nH]ncc34)c(OCc3ccc(-c4cn([C@H](C(=O)N5C[C@H](O)C[C@H]5C(=O)N[C@@H](CO)c5ccc(-n6cncn6)cc5)C(C)C)nn4)cc3)c2n1 (atropisomer, axis not shown; (M)) [Example 12]	RAS G12D (Homo sapiens, UniProt P01116, G12D)	nM	3

Task: May I ask what DC50 has been recorded for CO[C@@H](C)COc1nc(OC2CN(C(=O)NCCN(C)C)C2)c2cc(C3CC3)c(-c3c(C)c(F)cc4[nH]ncc34)c(OCc3ccc(-c4cn([C@H](C(=O)N5C[C@H](O)C[C@H]5C(=O)N[C@@H](CO)c5ccc(-c6scnc6C)cc5)C(C)C)nn4)cc3)c2n1 (atropisomer, axis not shown) [Example 17] ?
Output: 11
